- Test system: multiresistent staphylococci (MRSA) strain 134/93
- assay.text: MIC, micro broth dilution, MRSA 134/93
- Type: cell-based
- condition.details: Mueller-Hinton broth
measurement.name: minimal inhibitory concentrations MIC, 134/93

NC(=O)c1cc([N+](=O)[O-])cc([N+](=O)[O-])c1SC(=S)N1CCCC1; 25 µg/mL
CN(C)c1ncnc(SC(=S)N2CCCC2)c1[N+](=O)[O-]; 3.12 µg/mL
O=[N+]([O-])c1cnc(SC(=S)N2CCCC2)c([N+](=O)[O-])c1; 1.56 µg/mL
CCOc1nc(C)nc(SC(=S)N(CC)CC)c1[N+](=O)[O-]; 3.12 µg/mL
CN(C)C(=S)Sc1c(C#N)cc([N+](=O)[O-])cc1[N+](=O)[O-]; 0.4 µg/mL

Query: multiresistent staphylococci (MRSA) strain 134/93 / minimal inhibitory concentrations MIC, 134/93 / `CCN(CC)C(=S)Sc1ncnc(NC)c1[N+](=O)[O-]` : value?
Response: 0.78 µg/mL

Query: multiresistent staphylococci (MRSA) strain 134/93 / minimal inhibitory concentrations MIC, 134/93 / `COc1ncnc(SC(=S)N2CCCC2)c1[N+](=O)[O-]` : value?
Response: 3.12 µg/mL

Query: multiresistent staphylococci (MRSA) strain 134/93 / minimal inhibitory concentrations MIC, 134/93 / `NC(=O)c1cc([N+](=O)[O-])cc([N+](=O)[O-])c1SC(=S)N1CCCCCC1` : value?
Response: 6.25 µg/mL

Query: multiresistent staphylococci (MRSA) strain 134/93 / minimal inhibitory concentrations MIC, 134/93 / `COc1ncnc(SC(=S)N(C)C)c1[N+](=O)[O-]` : value?
Response: 6.25 µg/mL
